# Test target: T1, recombinant human IL4Rα-his protein (in house made) (human, UniProt P24394 26-232, limits assumed)
# T1 construct: also called Human IL4Ra-his
# Assay notes: competitive ELISA: coated human IL4Rα-his, blocked ligand biotin human IL4
pIC50: −log10 of the molar value.
Assay endpoint: pIC50

Binder: mouse antibody C2B2F7B7 (antibody, V domains shown, Mouse hybridoma mAb) VH: EVQLVESGGGLVQPGGSLKLSCAASGFTFSTYGMSWVRQTPDKRLELVATINSNGGSTNYPDSVKGRFTISRDNAKNTLYLQMSSLKSEDTAMYYCARFFRIRNAMDYWGQGTSVTVSS VL: DIQMTQSPASLSASVGETVTITCRASENIYSYLAWYQQKQGKSPQFLVYNAKTLAEGVPSRFSGSGSGTQFSLKINSLQPEDFGSYYCQHYYGTPTWTFGGGTKLEIK
Assay endpoint: pIC50
Test value: 9.14

Origin of the recorded values: patent US20230105029A1
